# ASSAY_TARGET: Cytochrome P450 1A2 (Homo sapiens)
# METHOD_NOTES: Cytochrome panel assay with activity outcomes; on activity, negative = inhibition: on the % scale 0 is the no-effect control and ±100 the full control effect
# CONDITIONS: recombinant CYP, pro-luciferin dealkylation, luminescence, p450-cyp1a2; series mostly up to 57.1 µM
Out of some 16,000 compounds screened, about 5,700 (36%) were called active. Inconclusive results (about 24%) are left out. The list shows a part of the results.
The following compounds are shown together with reported activity, negative = inhibition values.

As a guide, the following entries are already answered.
given_smiles=COc1cccc([C@@H]2Oc3ccc(OC)cc3/C(=N/OC[C@@H](C)[C@H](OCc3ccccc3)C(C)C)[C@@H]2O)c1 assay_target="Cytochrome P450 1A2 (Homo sapiens)" reported_value="-6.71% [at 11.4 µM] (inactive)"
given_smiles=NC(=O)c1csc(-c2ccc(CO)o2)n1 assay_target="Cytochrome P450 1A2 (Homo sapiens)" reported_value="-13.1% [at 11.4 µM] (inactive)"
given_smiles=C[C@@H](CSC(=N)N)C(N)=O assay_target="Cytochrome P450 1A2 (Homo sapiens)" reported_value="-6.57% [at 2.29 µM] (inactive)"
given_smiles=CCOC(=O)CCN1C(=O)[C@H]2[C@@H]3[C@H](O)C=CC(=O)[C@H]3CC[C@H]2C1=O assay_target="Cytochrome P450 1A2 (Homo sapiens)" reported_value="-6.05% [at 11.4 µM] (inactive)"
given_smiles=O=C(O)CCNc1ncnc2nc[nH]c12 assay_target="Cytochrome P450 1A2 (Homo sapiens)" reported_value="-6.59% [at 11.4 µM] (inactive)"

The recorded activity, negative = inhibition for entry Cc1ccc(S(=O)(=O)N[C@H]2COC(=O)[C@@H](C)COC(=O)[C@H](C)NC(=O)C/C=C\[C@H]2C)cc1 equals -11.4% [at 11.4 µM] (inactive)

The recorded activity, negative = inhibition for entry CO[C@@H]1COC(=O)C/C=C\[C@@H](C)COC(=O)[C@H](Cc2ccccc2)NC(=O)C/C=C\[C@H]1C equals 5.59% [at 11.4 µM] (inactive)

The recorded activity, negative = inhibition for entry CC(C)(Oc1ccc(-c2cccc3ccccc23)cc1)C(=O)O equals 8.77% [at 11.4 µM] (inactive)

The recorded activity, negative = inhibition for entry CC(C)C(=O)N[C@@H]1CCCN1C(=O)/C=C\c1ccccc1 equals 0.0238% [at 11.4 µM] (inactive)

The recorded activity, negative = inhibition for entry C[Si](C)(c1ccc(C(=O)O)cc1)c1ccc(C(=O)O)cc1 equals -13% [at 11.4 µM] (inactive)

The recorded activity, negative = inhibition for entry CN(C)CC(CN(C)C)c1ccccn1 equals -16.5% [at 11.4 µM] (inactive)

The recorded activity, negative = inhibition for entry C[C@@]12CC(=O)[C@@H]3[C@@H](CCC4=CC(=O)CC[C@]43C)[C@@H]1CC=C2CC(=O)O equals -17% [at 11.4 µM] (inactive)

###

# ASSAY_TARGET: Cytochrome P450 1A2 (Homo sapiens) (UniProt P05177)
# Sequence (P05177 whole entry, looked up): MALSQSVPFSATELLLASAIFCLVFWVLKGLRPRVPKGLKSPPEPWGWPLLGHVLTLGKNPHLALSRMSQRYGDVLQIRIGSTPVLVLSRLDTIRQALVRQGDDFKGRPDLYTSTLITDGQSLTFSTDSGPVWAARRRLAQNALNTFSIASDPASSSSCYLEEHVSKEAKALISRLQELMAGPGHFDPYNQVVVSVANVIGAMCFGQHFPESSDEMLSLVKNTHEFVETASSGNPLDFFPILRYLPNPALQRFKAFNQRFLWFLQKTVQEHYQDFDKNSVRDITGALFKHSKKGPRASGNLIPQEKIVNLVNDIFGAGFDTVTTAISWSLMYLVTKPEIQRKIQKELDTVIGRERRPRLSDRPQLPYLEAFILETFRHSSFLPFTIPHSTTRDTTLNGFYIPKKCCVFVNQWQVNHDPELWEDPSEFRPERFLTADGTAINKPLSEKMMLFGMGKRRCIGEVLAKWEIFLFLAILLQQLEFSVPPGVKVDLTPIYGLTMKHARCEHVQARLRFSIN
# METHOD_NOTES: Cytochrome panel assay with activity outcomes
# CONDITIONS: recombinant CYP, pro-luciferin dealkylation, luminescence, p450-cyp1a2; series mostly up to 57.1 µM
Screen size: about 16,000 compounds; about 5,700 (36%) were called active. About 24% were inconclusive and are not listed. The call rests on the fitted dose curve; in most records, active means well fitted curve in the direction sought with a large enough effect; inconclusive means small, poorly fitted or top-dose-only effect, or effect the other way; inactive means no such curve, though single readings can be large or run the other way. This is one part of the list.
Outcomes you can answer with include only these: label 1 = active, label 0 = inactive

Please review the following examples before continuing.
compound=COc1ccccc1CNc1ccnc(-c2ccc(C(=O)N(C)C)cc2)n1 assay_target="Cytochrome P450 1A2 (Homo sapiens) (UniProt P05177)" assigned_label="label 1"
compound=COc1ccccc1CNc1ccnc(-c2ccoc2)n1 assay_target="Cytochrome P450 1A2 (Homo sapiens) (UniProt P05177)" assigned_label="label 1"
compound=Cc1ccc(C(=O)N/C(=C/C=C/c2ccccc2)C(=O)NCc2ccco2)cc1 assay_target="Cytochrome P450 1A2 (Homo sapiens) (UniProt P05177)" assigned_label="label 0"

// return assay outcome for CC(=O)Nc1ccc(S(=O)(=O)NCC2CCC(C(=O)N3CCN(c4ccccn4)CC3)CC2)cc1 (stereo unspecified)
label 0

// return assay outcome for COc1ccc(CNc2ccnc(-c3ccc(N(C)C)cc3)n2)c(OC)c1
label 1

// return assay outcome for Cc1cccc(Nc2ccccc2C(=O)OCC(=O)NCc2ccco2)c1C
label 1

###

# ASSAY_TARGET: Cytochrome P450 1A2 (Homo sapiens)
# METHOD_NOTES: Cytochrome panel assay with activity outcomes
# CONDITIONS: recombinant CYP, pro-luciferin dealkylation, luminescence, p450-cyp1a2; series mostly up to 57.1 µM
The campaign covered roughly 16,000 compounds. About 5,700 (36%) were called active. About 24% were inconclusive and are not listed. The call rests on the fitted dose curve; in most records, active means well fitted curve in the direction sought with a large enough effect; inconclusive means small, poorly fitted or top-dose-only effect, or effect the other way; inactive means no such curve, though single readings can be large or run the other way. The list shows a part of the results.
Outcomes you can answer with include only these: active, inactive

compound=Cc1noc(C)c1C(=O)N1CCC2(CCCN(Cc3ccccc3)C2)CC1 assigned_label=inactive
compound=CC(C)CN1CCC2(CC1)CCN(C(=O)c1csnn1)CC2 assigned_label=inactive
compound="COc1ccc(C2C(C(=O)c3ccco3)=C(O)C(=O)N2Cc2cccnc2)cc1OC (centres undefined)" assigned_label=inactive
compound=O=S(=O)(c1ccccc1)N1CCC[C@@]2(CCN(c3ccncc3)C2)C1 assigned_label=inactive

// return assay outcome for CCCC(O)(CCC)C(=O)NN1CCCCC1
inactive

// return assay outcome for c1coc(CN2CCN(C(c3cccs3)c3nnnn3C3CCCC3)CC2)c1 (centres undefined)
inactive

###

# ASSAY_TARGET: Cytochrome P450 1A2 (Homo sapiens)
# METHOD_NOTES: Cytochrome panel assay with activity outcomes
# CONDITIONS: recombinant CYP, pro-luciferin dealkylation, luminescence, p450-cyp1a2; series mostly up to 57.1 µM
Screen size: about 16,000 compounds; about 5,700 (36%) were called active. Another 24% or so got no clear call; they are omitted. This is one part of the list.
ATTRIBUTE_MEASURED: AC50

As a guide, the following entries are already answered.
molecule=CC(C)NC(=O)N1CCC2(CC1)CCN(C(=O)c1csnn1)CC2 reported_value=inactive
molecule=COc1ccccc1CNc1nc(-c2ccc(N(C)C)cc2)nc2ccccc12 reported_value="2510 nM (active)"
molecule=COc1ccc([C@H]2Sc3ccccc3N(CCN(C)C)C(=O)[C@H]2OC(C)=O)cc1 reported_value=inactive
molecule=Cc1cnc(CNc2nc(-c3ccc4c(c3)OCO4)nc3ccccc23)cn1 reported_value="2000 nM (active)"
molecule=Cc1cc2c(s1)CCCCC(=O)N2 reported_value=inactive

The recorded AC50 for entry CC(C)Oc1ccc(/C(O)=C2/C(=O)C(=O)N(Cc3cccnc3)C2c2ccco2)cc1 (stereo unspecified) equals inactive

The recorded AC50 for entry COc1ccccc1CNc1ncncc1-c1ccoc1 equals 1260 nM (active)

The recorded AC50 for entry c1ccc(CNc2ccnc(-c3ccc4c(c3)OCO4)n2)cc1 equals 398 nM (active)

The recorded AC50 for entry CCCN1C(=O)C(NC(C)=O)c2cc(OC)ccc21 (stereo unspecified) equals 7080 nM (active)

The recorded AC50 for entry COc1ccc(CNc2ncncc2-c2cccnc2)c(OC)c1 equals 3160 nM (active)

The recorded AC50 for entry COc1ccccc1CN1CCCC2(CCN(C(=O)c3cnccn3)CC2)C1 equals inactive

###

# ASSAY_TARGET: Cytochrome P450 1A2 (Homo sapiens) (UniProt P05177)
# METHOD_NOTES: Cytochrome panel assay with activity outcomes
# CONDITIONS: recombinant CYP, pro-luciferin dealkylation, luminescence, p450-cyp1a2; series mostly up to 57.1 µM
Out of some 16,000 compounds screened, about 5,700 (36%) were called active. Inconclusive results (about 24%) are left out. Calls come from the whole dose curve; as a rule, active = well fitted curve in the direction sought with a large enough effect; inconclusive = small, poorly fitted or top-dose-only effect, or effect the other way; inactive = no such curve, though single readings can be large or run the other way. The list shows a part of the results.
Outcomes you can answer with include only these: true (1) = active, false (0) = inactive

Please review the following examples before continuing.
compound=CCSC(N)=Nc1ccc(C(F)(F)F)cc1 assigned_label="true (1)"
compound=COc1ccc2c(c1)Cc1sc(NC(=O)c3ccco3)nc1-2 assigned_label="true (1)"
compound=COc1cccc(C(=O)Nc2nc3c(s2)CN(C)CC3)c1 assigned_label="true (1)"
compound=O=c1cnc2cnc(Oc3cccc(Cl)c3)nc2n1Cc1ccc(F)cc1 assigned_label="true (1)"

// return assay outcome for O=c1cnc2cnc(Oc3ccccc3)nc2n1Cc1ccc(F)cc1
true (1)

// return assay outcome for COc1ccc(-c2nc(NC(=O)c3ccccc3)sc2-c2ccc([N+](=O)[O-])cc2)cc1
false (0)

// return assay outcome for COCCn1nc2cc(C(=O)NCC34CC5CC(CC(C5)C3)C4)ccc2c1OC
false (0)

// return assay outcome for CCCCn1nc2cc(C(=O)NCCCCc3ccccc3)ccc2c1OCC
false (0)

// return assay outcome for Cc1oc(-c2cccc(Cl)c2)[n+]([O-])c1C
true (1)

// return assay outcome for COc1ccc(NC(=O)C2(c3ccc(NC(=O)c4ccc(C)cc4)cc3)CCCC2)cc1
false (0)

// return assay outcome for CCCN(CC1CC1)c1nc(C)nc(Nc2c(Cl)cc(Cl)cc2Cl)c1Cl
false (0)

// return assay outcome for O=C(OC1CCN(c2ccc([N+](=O)[O-])cc2)CC1)c1ccccc1
false (0)

// return assay outcome for CSc1nc(Oc2ccc(=O)[nH]n2)nc(N(C)C)n1
false (0)

// return assay outcome for CCOc1c2ccc(C(=O)NCc3ccc(OC(F)(F)F)cc3)cc2nn1C
true (1)
